- assayed target: Bacillus subtilis
- test: Binding dissociation constant towards 3'-Fl-AM1A-Rhd in Bacillus subtilis tyrS
Quick list: log10 of Kd per entry.
Scale: decimal log of Kd, Kd in µM.

compound	assayed target	log10 of Kd
NC[C@@H]1O[C@H](O[C@H]2[C@@H](O)[C@H](O[C@@H]3[C@@H](O)[C@H](N)C[C@H](N)[C@H]3O[C@H]3O[C@H](CN)[C@@H](O)[C@H](O)[C@H]3N)O[C@@H]2CO)[C@H](N)[C@@H](O)[C@@H]1O	Bacillus subtilis	0.93
NCCC(O)C(=O)N[C@@H]1C[C@H](N)[C@@H](O[C@H]2O[C@H](CN)[C@@H](O)[C@H](O)[C@H]2O)[C@H](O)[C@H]1O[C@H]1O[C@H](CO)[C@@H](O)[C@H](N)[C@H]1O (single isomer, unassigned)	Bacillus subtilis	2.88
NC[C@@H]1O[C@H](O[C@H]2[C@@H](O)[C@H](O[C@@H]3[C@@H](O)[C@H](N)C[C@H](N)[C@H]3O[C@H]3O[C@H](CO)[C@@H](O)[C@H](O)[C@H]3N)O[C@@H]2CO)[C@H](N)[C@@H](O)[C@@H]1O	Bacillus subtilis	1.70

Give the reported value of log10 of Kd for this record: `CN[C@@H]1[C@@H](O)[C@@H](O[C@@H]2[C@@H](O)[C@H](O[C@H]3O[C@H]([C@@H](C)NC)CC[C@H]3N)[C@@H](N)C[C@H]2N)OC[C@]1(C)O` 2.08

Give the reported value of log10 of Kd for this record: `NC[C@H]1O[C@H](O[C@H]2[C@H](O)[C@@H](O[C@H]3O[C@H](CO)[C@@H](O)[C@H](N)[C@H]3O)[C@H](N)C[C@@H]2N)[C@H](N)C[C@@H]1O` 1.58

Give the reported value of log10 of Kd for this record: [H]/N=C(/N)N[C@H]1[C@H](O)[C@@H](O)[C@H](O[C@@H]2O[C@@H](C)[C@](O)(C=O)[C@H]2O[C@@H]2O[C@@H](CO)[C@H](O)[C@@H](O)[C@@H]2NC)[C@@H](N/C(N)=N\[H])[C@@H]1O (stereo in doubt) 2.90

###

- Tested on: Nucleic Acid
- test: Maximum Frel value for binding to 3'-Fl-AM1A-Rhd in Bacillus subtilis tyr
Quick list: Frel per entry.
Please state the value as a number alone, without comment.

Take a look at these entries with their results.
compound	assayed target	Frel
NC[C@H]1O[C@H](O[C@H]2[C@H](O)[C@@H](O[C@H]3O[C@H](CO)[C@@H](O)[C@H](N)[C@H]3O)[C@H](N)C[C@@H]2N)[C@H](O)[C@@H](O)[C@@H]1O	Nucleic Acid	0.21
NC[C@H]1O[C@H](O[C@H]2[C@H](O)[C@@H](O[C@H]3O[C@H](CO)[C@@H](O)[C@H](N)[C@H]3O)[C@H](N)C[C@@H]2N)[C@H](N)[C@@H](O)[C@@H]1O	Nucleic Acid	0.38
[H]/N=C(/N)N[C@H]1[C@H](O)[C@@H](O)[C@H](O[C@@H]2O[C@@H](C)[C@](O)(C=O)[C@H]2O[C@@H]2O[C@@H](CO)[C@H](O)[C@@H](O)[C@@H]2NC)[C@@H](N/C(N)=N\[H])[C@@H]1O (stereo in doubt)	Nucleic Acid	0.34
CN[C@@H]1[C@@H](O)[C@@H](O[C@@H]2[C@@H](O)[C@H](O[C@H]3O[C@H]([C@@H](C)NC)CC[C@H]3N)[C@@H](N)C[C@H]2N)OC[C@]1(C)O	Nucleic Acid	0.8

Now, please, on to the next compound.
Provide Frel, recorded with Nucleic Acid, of `NC[C@@H]1O[C@H](O[C@H]2[C@@H](O)[C@H](O[C@@H]3[C@@H](O)[C@H](N)C[C@H](N)[C@H]3O[C@H]3O[C@H](CN)[C@@H](O)[C@H](O)[C@H]3N)O[C@@H]2CO)[C@H](N)[C@@H](O)[C@@H]1O` 0.46
